Before we begin, note that these pKi values for 5-hydroxytryptamine receptor 6 (Homo sapiens, UniProt P50406) originate from several publications.
Sequence (P50406 whole entry): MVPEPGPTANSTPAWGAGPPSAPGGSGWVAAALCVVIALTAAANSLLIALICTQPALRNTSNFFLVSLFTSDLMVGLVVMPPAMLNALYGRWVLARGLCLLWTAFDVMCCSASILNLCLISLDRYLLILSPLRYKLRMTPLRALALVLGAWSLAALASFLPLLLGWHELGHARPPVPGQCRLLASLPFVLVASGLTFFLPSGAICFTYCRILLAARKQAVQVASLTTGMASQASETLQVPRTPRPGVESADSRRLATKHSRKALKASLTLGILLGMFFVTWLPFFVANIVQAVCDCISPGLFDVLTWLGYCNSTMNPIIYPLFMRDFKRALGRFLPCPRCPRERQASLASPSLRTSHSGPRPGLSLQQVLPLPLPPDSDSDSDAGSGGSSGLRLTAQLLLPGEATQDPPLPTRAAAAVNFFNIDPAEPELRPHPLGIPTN
Please express pKi as -log10 of the molar concentration.

These recorded examples may help you get a feel for the data.
COc1ccc(S(=O)(=O)Nc2ccc3c(c2)c(C(C)=NNC(=N)N)cn3C)cc1OC ... 8.52
O=c1n(C2CCNCC2)c2ccccc2n1S(=O)(=O)c1c(Cl)nc2sccn12 ... 7.34
O=S(=O)(c1cccc(Cl)c1)n1cc(C2CCCNC2)c2ccccc21 (stereo not drawn) ... 8.70
CN(C)C1CCc2ccc3c(ccn3S(=O)(=O)c3cccc(Cl)c3)c2C1 (stereo not drawn) ... 8.70
N=C(N)NN=Cc1c(-c2ccc(Cl)cc2)[nH]c2ccccc12 ... 7.74
O=c1n(C2=CCNCC2)c2ccccc2n1S(=O)(=O)c1ccc(Br)s1 ... 8.40
CN(C)C1CCc2ccc3c(ccn3S(=O)(=O)c3ccccc3)c2C1 (stereo not drawn) ... 9.00
O=S(=O)(c1ccc(Cl)s1)n1ccc2c(OC[C@@H]3CCCN3)cccc21 ... 8.15

Sample O=S(=O)(Nc1ccc2c(c1)OC(CNCc1ccc3c(c1)OCO3)CC2)c1ccccc1 (stereo not drawn) ; pKi observed: 8.70
